target: Mre11 Y187C (in MRNBD);Rad50NBD (Pyrococcus furiosus;Pyrococcus furiosus, UniProt Q8U1N9;P58301 1-426;1-195+709-882, Y187C|internal_change); assay: fluorescence polarization
reported_endpoint: Kd (µM)
Return type: number; implicit unit µM.

Would you mind telling me what Kd value was observed for FAM 40-mer dsDNA (dsDNA) DNA 1: GTGTTCGGACTCTGCCTCAAGACGGTAGTCAACGTGCTTG DNA 2: CAAGCACGTTGACTACCGTCTTGAGGCAGAGTCCGAACAC ?
1.8
